Assay Target: Cellular tumor antigen p53 (Homo sapiens) (UniProt P04637)
Sequence (P04637 whole entry, looked up): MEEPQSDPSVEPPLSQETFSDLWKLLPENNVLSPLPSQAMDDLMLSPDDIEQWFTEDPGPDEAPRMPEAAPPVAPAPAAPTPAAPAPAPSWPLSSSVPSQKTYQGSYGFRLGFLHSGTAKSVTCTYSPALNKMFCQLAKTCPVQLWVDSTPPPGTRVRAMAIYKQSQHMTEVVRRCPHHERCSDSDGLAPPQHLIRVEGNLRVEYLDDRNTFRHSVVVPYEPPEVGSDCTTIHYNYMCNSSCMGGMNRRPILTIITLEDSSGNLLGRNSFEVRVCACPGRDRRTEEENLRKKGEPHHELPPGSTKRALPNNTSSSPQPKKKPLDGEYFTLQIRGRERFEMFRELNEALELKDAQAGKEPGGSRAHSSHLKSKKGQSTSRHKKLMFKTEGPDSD
Test Description: ATG_p53_CIS: Attagene CIS-FACTORIAL HepG2 Assay for human p53 Transcription Factor (AID 2282994)
Applied Conditions: HepG2 p53 cis-element reporter, Attagene mRNA; actives raise or lower the signal
Calls of active or inactive are those of the source. Rule for the calls: active = hit-call score of the fitted dose curve at least 0.9, where 1 is the maximum; inactive = score below 0.9.
Pick from active, inactive when you respond.

Query: In this assay, the call recorded for `Nc1ccc([N+](=O)[O-])cc1Cl` was what?
Reply: inactive

Query: How about `COC(N)=O` ?
Reply: inactive

Query: How about C=C(C)C(=O)OCC1CO1 (centres undefined) ?
Reply: inactive

Query: How about `Cc1ccc(C(=O)Cl)cc1` ?
Reply: inactive

Query: How about `Cc1cccc(N)c1` ?
Reply: inactive

Query: How about `CCN(CC)c1ccccc1` ?
Reply: inactive

Query: How about O=P1(N(CCCl)CCCl)NCCCO1 (centres undefined) ?
Reply: inactive

Query: How about `Cc1cc(C)c(C(=O)P(=O)(c2ccccc2)c2ccccc2)c(C)c1` ?
Reply: inactive

Query: How about `CC(C)(C)OOC(C)(C)C` ?
Reply: inactive

Query: How about `COP(=O)(O)OC` ?
Reply: inactive

Query: How about `Cn1[nH]nnc1=S` ?
Reply: inactive

Query: How about `CO/N=C(/C(=O)OC)c1ccccc1COc1ccccc1C` ?
Reply: inactive

Query: How about CC(Cc1ccc(OCC(=O)O)cc1)NCC(O)c1csc(C(F)(F)F)n1 (centres undefined) ?
Reply: inactive

Query: How about `Cc1ccc(N)cc1N` ?
Reply: inactive

Query: How about `CC(=O)CCc1ccc2c(c1)OCO2` ?
Reply: inactive

Query: How about CC(O)C#N (centres undefined) ?
Reply: inactive

Query: How about `CC(C)(C)c1ccccc1OP(=O)(Oc1ccccc1)Oc1ccccc1` ?
Reply: inactive

Query: How about `Nc1ccc2ccccc2c1` ?
Reply: inactive

Query: How about `O=P(Oc1ccccc1)(Oc1ccccc1)Oc1ccccc1` ?
Reply: inactive

Query: How about `CCC(C)(C)c1ccc(O)cc1` ?
Reply: inactive

Query: How about CC(O)C(F)(F)C(F)(F)F (centres undefined) ?
Reply: inactive

Query: How about `CCOP(=S)(OCC)SCS(=O)(=O)CC` ?
Reply: inactive

Query: How about `Oc1ccccc1Br` ?
Reply: inactive

Query: How about `C=CC(=O)OCC(CC)(COC(=O)C=C)COC(=O)C=C` ?
Reply: inactive

Query: How about O=P(OCC(Br)CBr)(OCC(Br)CBr)OCC(Br)CBr (centres undefined) ?
Reply: inactive

Query: How about `CC(C)CBr` ?
Reply: inactive

Query: How about `c1ccc2c(c1)Nc1ccccc1S2` ?
Reply: inactive

Query: How about `O=NN1CCCC1` ?
Reply: inactive

Query: How about `CCN(CC)C1CCCCC1` ?
Reply: inactive

Query: How about `Cc1c([N+](=O)[O-])cc2c(c1[N+](=O)[O-])C(C)(C)CC2(C)C` ?
Reply: inactive

Query: How about `Cc1ccc(O)cc1C` ?
Reply: inactive

Query: How about `CCCCN(CCCC)N=O` ?
Reply: inactive

Query: How about CCOP(=S)(NC(C)C)Oc1ccccc1C(=O)OC(C)C (centres undefined) ?
Reply: inactive

Query: How about `COP(N)(=S)OC` ?
Reply: inactive

Query: How about ClC1=C(Cl)C2(Cl)C3C(Cl)C(Cl)CC3C1(Cl)C2(Cl)Cl (centres undefined) ?
Reply: inactive

Query: How about `COP(=O)(CCC(=O)NCO)OC` ?
Reply: inactive

Query: How about `CCCN(CCC)c1c([N+](=O)[O-])cc(C(C)C)cc1[N+](=O)[O-]` ?
Reply: inactive

Query: How about `CC(C)(C)c1ccc(O)cc1` ?
Reply: active

Query: How about O=S1(=O)OCC2C(CO1)C1(Cl)C(Cl)=C(Cl)C2(Cl)C1(Cl)Cl (centres undefined) ?
Reply: active

----------
Read-out: Monokine induced gamma interferon (MIG), CXCL9 (gene 4283)
Test Description: BSK_CASM3C_MIG: BioMAP Diversity Plus: CASM3C Assay for Monokine induced gamma interferon (MIG) Biomarker Activity (AID 2283048);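 note: MIG protein level measured by ELISA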
Applied Conditions: primary human coronary artery smooth muscle cells; actives raise or lower the signal
Activity calls are given as the source filed them. Rule for the calls: active = hit-call score of the fitted dose curve at least 0.9, where 1 is the maximum; inactive = score below 0.9.
Pick from active, inactive when you respond.

Query: In this assay, the call recorded for CC(O)C(F)(F)C(F)(F)F (configuration not stated) was what?
Reply: inactive

Query: How about OCC1CO1 (configuration not stated) ?
Reply: inactive

Query: How about `CCN(CC)c1ccccc1` ?
Reply: inactive

Query: How about `CCOP(=S)(S)OCC` ?
Reply: inactive

Query: How about `CSC(C)(C)C=NO` ?
Reply: inactive

Query: How about `O=C(O)C(F)(F)C(F)(F)C(=O)O` ?
Reply: inactive

Query: How about CCCCC(CC)COP(=O)(Oc1ccccc1)Oc1ccccc1 (configuration not stated) ?
Reply: inactive

Query: How about `CC(C)Nc1ccc(Nc2ccccc2)cc1` ?
Reply: active

Query: How about `CCCN(CCC)c1c([N+](=O)[O-])cc(C(C)C)cc1[N+](=O)[O-]` ?
Reply: inactive

Query: How about `Cc1c([N+](=O)[O-])cc2c(c1[N+](=O)[O-])C(C)(C)CC2(C)C` ?
Reply: inactive

Query: How about `Cc1ccc2c(c1N)C(=O)c1ccccc1C2=O` ?
Reply: inactive

Query: How about `COP(=O)(CCC(=O)NCO)OC` ?
Reply: inactive

----------
Read-out: Collagen III, COL3A1 (gene 1281)
Test Description: BSK_hDFCGF_CollagenIII: BioMAP Diversity Plus: hDFCGF Assay for Collagen III Biomarker Activity (AID 2283056)
Applied Conditions: primary human foreskin fibroblasts; actives raise or lower the signal
Calls of active or inactive are those of the source. Rule for the calls: active = hit-call score of the fitted dose curve at least 0.9, where 1 is the maximum; inactive = score below 0.9.
Pick from true for active, false for inactive when you respond.

Query: In this assay, the call recorded for `NC(=O)C(F)(F)C(F)(F)F` was what?
Reply: false

Query: How about `CC(C)Nc1ccc(Nc2ccccc2)cc1` ?
Reply: true

Query: How about `O=C(O)C=CC(F)(C(F)(F)F)C(F)(F)F` ?
Reply: false

Query: How about `CCCN(CCC)c1c([N+](=O)[O-])cc(C(C)C)cc1[N+](=O)[O-]` ?
Reply: true

Query: How about `CCCCN(CCCC)N=O` ?
Reply: false

Query: How about O=P(OCC(Br)CBr)(OCC(Br)CBr)OCC(Br)CBr (stereo unspecified) ?
Reply: false

Query: How about O=C(O)C1C(C(=O)O)C2(Cl)C(Cl)=C(Cl)C1(Cl)C2(Cl)Cl (stereo unspecified) ?
Reply: false

Query: How about CCC1(c2ccccc2)C(=O)N=C(O)NC1=O (stereo unspecified) ?
Reply: false

Query: How about `Cc1ccc(N)cc1N` ?
Reply: false

Query: How about `COP(N)(=S)OC` ?
Reply: false

Query: How about O=C(O)C(F)(OC(F)(F)C(F)(F)C(F)(F)F)C(F)(F)F (stereo unspecified) ?
Reply: false

Query: How about CC(O)C(F)(F)C(F)(F)F (stereo unspecified) ?
Reply: false

Query: How about `CN(C)C(=O)Cl` ?
Reply: false

Query: How about `c1ccc2c(c1)sc1ccccc12` ?
Reply: false

Query: How about OCC1CO1 (stereo unspecified) ?
Reply: false

Query: How about `CCCCN(CCCC)SN(C)C(=O)Oc1cccc2c1OC(C)(C)C2` ?
Reply: true

Query: How about `O=C(O)C(F)(F)C(F)(F)C(=O)O` ?
Reply: false

Query: How about `N#Cc1cc([N+](=O)[O-])ccc1N` ?
Reply: false

Query: How about CC(Cl)CN(C)C (stereo unspecified) ?
Reply: false

Query: How about `O=[N+]([O-])c1ccccc1` ?
Reply: false

Query: How about `CCCCOCCOP(=O)(OCCOCCCC)OCCOCCCC` ?
Reply: true

Query: How about `CCOS(=O)(=O)OCC` ?
Reply: false

Query: How about `CC(C)(C)c1ccc(O)cc1` ?
Reply: false

Query: How about `O=C(O)C(F)(F)OC(F)(F)C(F)(F)OC(F)(F)C(=O)O` ?
Reply: false

Query: How about `CCOP(=S)(OCC)SCS(=O)(=O)CC` ?
Reply: false

Query: How about `OCC(F)(F)OC(F)(F)C(F)(F)OC(F)(F)CO` ?
Reply: false

Query: How about CCCCC(CC)COC(=O)c1c(Br)c(Br)c(Br)c(Br)c1C(=O)OCC(CC)CCCC (stereo unspecified) ?
Reply: false

Query: How about `C=CC(=O)OCC(CC)(COC(=O)C=C)COC(=O)C=C` ?
Reply: true

Query: How about `COP(=O)(O)OC` ?
Reply: false

Query: How about `[N-]=[N+]=[N-]` ?
Reply: false

Query: How about `CCNc1nc(Cl)nc(NC(C)(C)C)n1` ?
Reply: false

Query: How about `Cc1cccc(N)c1` ?
Reply: false

Query: How about `CC(Cl)(Cl)C(=O)O` ?
Reply: false

Query: How about `CCCCCCCc1ccc(O)cc1` ?
Reply: true

Query: How about `COP(=O)(CCC(=O)NCO)OC` ?
Reply: false

Query: How about `Cc1c([N+](=O)[O-])cc2c(c1[N+](=O)[O-])C(C)(C)CC2(C)C` ?
Reply: true

Query: How about `Cc1ccc2c(c1N)C(=O)c1ccccc1C2=O` ?
Reply: true

Query: How about `Cc1ccc([N+](=O)[O-])cc1C` ?
Reply: false

Query: How about FC(F)(F)C(F)(C(F)(F)F)C(F)(F)C(F)(F)CC1CO1 (stereo unspecified) ?
Reply: false

Query: How about `COCCOCCO` ?
Reply: false

Query: How about `O=c1ssc(Cl)c1Cl` ?
Reply: true
